B1: OR4K15 (parent)
chain: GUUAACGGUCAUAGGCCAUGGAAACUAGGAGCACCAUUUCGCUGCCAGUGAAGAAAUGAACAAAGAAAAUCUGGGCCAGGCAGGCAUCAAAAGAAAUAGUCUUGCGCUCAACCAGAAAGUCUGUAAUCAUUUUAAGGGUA

- Variants of: B1
- TEST_PROTOCOL: self-cleavage, relative activity (ratio to wild type); higher = more cleavage; in vitro, sequencing; the parent is a self-cleaving ribozyme
METRIC_NAME: self-cleavage
Reply: number alone, nothing else.

Here are 5 variants together with their reported answers.
[
  {
    "VARIANT_SPEC": "G48A A92U",
    "METRIC_NAME": "self-cleavage",
    "DATA_VALUE": 1.62
  },
  {
    "VARIANT_SPEC": "A82C A117G",
    "METRIC_NAME": "self-cleavage",
    "DATA_VALUE": 0.15
  },
  {
    "VARIANT_SPEC": "A18C A22U",
    "METRIC_NAME": "self-cleavage",
    "DATA_VALUE": 1.71
  },
  {
    "VARIANT_SPEC": "A51U U120C",
    "METRIC_NAME": "self-cleavage",
    "DATA_VALUE": 0.47
  },
  {
    "VARIANT_SPEC": "A91G A94U",
    "METRIC_NAME": "self-cleavage",
    "DATA_VALUE": 1.02
  }
]

// query Tell us which self-cleavage value is on record for A92U U120C
// result 1

// query Tell us which self-cleavage value is on record for A18U U38A
// result 1.02

// query Tell us which self-cleavage value is on record for U120A U124C
// result 1.04

// query Tell us which self-cleavage value is on record for A78C U102C
// result 0.42

// query Tell us which self-cleavage value is on record for U100A A118G
// result 0.47

// query Tell us which self-cleavage value is on record for U39C A47C
// result 1.63

// query Tell us which self-cleavage value is on record for A91G A116G
// result 0.55

// query Tell us which self-cleavage value is on record for U9C G29U
// result 2.61

// query Tell us which self-cleavage value is on record for G73U A110G
// result 0.03
